Origin of the recorded values: paper PMC9870662

Measured IC50 of individual entries
Biological target: Ovine COX-1 (Ovis aries)
Sequence (P05979 25-600): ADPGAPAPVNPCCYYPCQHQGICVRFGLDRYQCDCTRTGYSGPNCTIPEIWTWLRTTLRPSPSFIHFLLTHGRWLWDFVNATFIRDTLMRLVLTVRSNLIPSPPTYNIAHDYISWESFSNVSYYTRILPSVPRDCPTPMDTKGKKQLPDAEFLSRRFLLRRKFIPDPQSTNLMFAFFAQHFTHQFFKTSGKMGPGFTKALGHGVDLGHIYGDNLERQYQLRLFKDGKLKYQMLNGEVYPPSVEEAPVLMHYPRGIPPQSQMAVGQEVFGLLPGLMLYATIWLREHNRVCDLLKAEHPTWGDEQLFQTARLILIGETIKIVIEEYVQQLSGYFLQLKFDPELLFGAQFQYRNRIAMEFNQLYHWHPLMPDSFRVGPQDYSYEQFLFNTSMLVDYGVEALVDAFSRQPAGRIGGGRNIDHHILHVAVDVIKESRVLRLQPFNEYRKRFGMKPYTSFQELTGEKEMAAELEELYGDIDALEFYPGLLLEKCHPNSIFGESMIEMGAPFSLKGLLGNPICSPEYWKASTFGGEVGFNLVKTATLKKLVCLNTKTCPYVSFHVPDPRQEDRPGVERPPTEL
Assay: COX-1 enzyme inhibition assay
Format: biochemical
Settings: read-out: IC50 in µM Ovine COX-1; fluorescent enzyme kit
Property: IC50 (µM)

INSERT INTO results (cpd_smiles, lt_gt_eq, obs_value) VALUES
  ('CS(=O)(=O)c1ccc(-c2cc(-c3cccc(F)c3)n3c(n2)nc2ccccc23)cc1', '>', 100),
  ('CS(=O)(=O)c1ccc(-c2cc(-c3ccccc3F)n3c(n2)nc2ccccc23)cc1', '=', 14),
  ('CS(=O)(=O)c1ccc(-c2cc(-c3ccc(F)cc3)n3c(n2)nc2ccccc23)cc1', '=', 38.8);

====

The entries below come with measured Response (n) Mean ± SD values attached.
Tested on: male NMRI mice
Experiment: Acetic acid-induced writhing test
Format: in vivo
Details: 5 mg/kg i.p.; number of writhing responses during 30 min; eight mice
Property: Response (n) Mean ± SD

INSERT INTO results (cpd_smiles, experimental_system, obs_value) VALUES
  ('CS(=O)(=O)c1ccc(-c2cc(-c3ccccc3F)n3c(n2)nc2ccccc23)cc1', 'male NMRI mice', 33.75),
  ('CS(=O)(=O)c1ccc(-c2cc(-c3ccccc3)n3c(n2)nc2ccccc23)cc1', 'male NMRI mice', 25),
  ('Cc1ccc(-c2cc(-c3ccc(S(C)(=O)=O)cc3)nc3nc4ccccc4n23)cc1', 'male NMRI mice', 18.63),
  ('COc1ccccc1-c1cc(-c2ccc(S(C)(=O)=O)cc2)nc2nc3ccccc3n12', 'male NMRI mice', 38.38),
  ('CS(=O)(=O)c1ccc(-c2cc(-c3cccc(Cl)c3)n3c(n2)nc2ccccc23)cc1', 'male NMRI mice', 28.50);

====

Molecular target: Ovine COX-1 (Ovis aries)
Test: COX-1 enzyme inhibition assay
Assay type: biochemical
Listed here: items and their measured IC50.
Property: IC50 (µM)

INSERT INTO measurements (cpd_smiles, readout_unit, lt_gt_eq, obs_value) VALUES
  ('COc1cc(-c2cc(-c3ccc(S(C)(=O)=O)cc3)nc3nc4ccccc4n23)cc(OC)c1OC', 'µM', '=', 16.3),
  ('Cc1cccc(-c2cc(-c3ccc(S(C)(=O)=O)cc3)nc3nc4ccccc4n23)c1', 'µM', '=', 24),
  ('COc1ccc(-c2cc(-c3ccc(S(C)(=O)=O)cc3)nc3nc4ccccc4n23)cc1', 'µM', '>', 100),
  ('CS(=O)(=O)c1ccc(-c2cc(-c3ccccc3Cl)n3c(n2)nc2ccccc23)cc1', 'µM', '=', 15.2),
  ('COc1cccc(-c2cc(-c3ccc(S(C)(=O)=O)cc3)nc3nc4ccccc4n23)c1', 'µM', '>', 100),
  ('CS(=O)(=O)c1ccc(-c2cc(-c3ccc(Cl)cc3)n3c(n2)nc2ccccc23)cc1', 'µM', '=', 17.8),
  ('Cc1ccc(-c2cc(-c3ccc(S(C)(=O)=O)cc3)nc3nc4ccccc4n23)cc1', 'µM', '=', 40.8),
  ('CS(=O)(=O)c1ccc(-c2cc(-c3cccc(Cl)c3)n3c(n2)nc2ccccc23)cc1', 'µM', '=', 10.4),
  ('CS(=O)(=O)c1ccc(-c2cc(-c3ccccc3)n3c(n2)nc2ccccc23)cc1', 'µM', '=', 6.1),
  ('COc1ccccc1-c1cc(-c2ccc(S(C)(=O)=O)cc2)nc2nc3ccccc3n12', 'µM', '=', 6.9),
  ('Cc1ccccc1-c1cc(-c2ccc(S(C)(=O)=O)cc2)nc2nc3ccccc3n12', 'µM', '=', 48.3),
  ('COc1ccc(-c2cc(-c3ccc(S(C)(=O)=O)cc3)nc3nc4ccccc4n23)cc1OC', 'µM', '=', 13.9);
